Where these numbers come from: ChEMBL document CHEMBL3507680

Quick reference: cytotoxicity at 70.5 h of the listed items.
- TEST: Human HepG2 cell viability assay in 384 well format
- Format: toxicity, cell-based
- Set-up: dose 125 nL, time 70.5 hour; concentration not given beside the values
- REPORTED_CONDITIONS: HepG2 cells, read-out: Inhibition

| MOLECULE | UNIT_INFO | cytotoxicity at 70.5 h |
| --- | --- | --- |
| Cc1ccccc1SCC(=O)N[C@H]1CC[C@H](n2cnnc2)CC1 | % | -5.74 |
| CCS(=O)(=O)CCSc1cccc(C#N)c1 | % | -23.7 |
| CC(NC1CCCC1)c1ccccc1-n1cccn1 (stereo unspecified) | % | -6.22 |
| O=C(NCCCNC(=O)c1ccc(F)cc1F)c1cccc(O)c1 | % | -1.34 |
| COC(=O)N1CCC(CNC(=O)C2CC2)CC1 | % | -18.1 |
| CN(Cc1ccccc1F)C(=O)COC(=O)c1cc(Cl)c[nH]1 | % | 10.9 |

---

- TEST: Human HepG2 cell viability assay in 384 well format
- Format: toxicity, cell-based
- Parameters: dose 125 nL, time 70.5 hour; concentration not given beside the values
- REPORTED_CONDITIONS: HepG2 cells, read-out: Inhibition

| MOLECULE | UNIT_INFO | cytotoxicity at 70.5 h |
| --- | --- | --- |
| CN(C)[C@@H]1CCN(S(=O)(=O)c2cn(C)cn2)[C@H]1Cc1cccnc1 | % | -2.89 |
| CC(=O)N1CCC2(CC1)COC(COCc1ccccn1)C2 (stereo not drawn) | % | -1.84 |
| CCn1nc2c(cc1=O)CN(CCOc1ccc(C#N)cc1)CC2 | % | 17.6 |
| Cc1csc2c(C3CCCN(C(=O)CCn4cncn4)C3)nc(C)n12 (stereo not drawn) | % | 1.05 |
| CCc1ccc(C(C)NC(=O)CCc2nc(-c3nnc[nH]3)no2)cc1 (stereo not drawn) | % | -4.48 |
| C1CC(CN2C[C@H]3CC[C@@H]2CN(Cc2noc(C4CCCC4)n2)C3)C1 | % | 22.2 |
| Cc1cnn(CC2CCCCN2C(=O)Cc2ccc(C#N)cc2)c1 (stereo not drawn) | % | -7.76 |
| CCn1nc(C(C)C)cc1C(=O)NCCCOC | % | -4.05 |
| O=C(Nc1cccnc1)[C@H]1C[C@H]2OCC[C@H]2N(CC2CC2)C1 | % | -14.8 |
| O=C1N(Cc2ccc(Cl)cc2)CCC12CCCNC2 (stereo not drawn) | % | -12.9 |
| CCc1cc(N2CCC(NCCc3ccc(C)o3)CC2)nc(C)n1 | % | -16.4 |
| COc1c(CNCc2cccc(CN(C)C)c2)c(C)nn1C | % | -12.7 |
| CC(=O)N1CC[C@H](c2nc3cc(C)ccc3o2)C1 | % | 0.212 |
| Nc1nnc(SCc2cc(=O)n3c4c(sc3n2)CCCC4)s1 | % | -8.05 |
| CC(=O)N1CCCN(C(=O)c2oc(Br)cc2C)CC1 | % | -3.38 |
| CCCn1ccnc1CN1CCC(O)(CN2CCCCC2)C1 (stereo not drawn) | % | -4.35 |
| O=C1CCCN1CCCNCc1cc(O)c2cccc(Cl)c2n1 | % | 21 |
| CCc1nc2n(n1)CC(NCc1cn(C)nc1-c1cccnc1)CC2 (stereo not drawn) | % | -4.07 |
| O=C1CO[C@H]2CN(C3CCOCC3)C[C@H]2N1Cc1ccncc1 | % | 0.0501 |
| Cc1cccc(CN2C(=O)CCC23CCN(C(=O)c2ccco2)CC3)n1 | % | 0.736 |
| COCCC1(C(=O)O)CCCN(CCOCc2ccccc2)C1 (stereo not drawn) | % | -3.38 |
| N#Cc1ccc(C(=O)N2CCC(c3ncc[nH]3)CC2)cn1 | % | -7.49 |
| Cc1ccccc1C(=O)N1C[C@@H]2[C@@H](CN(C)CCc3ccccn3)[C@@H]2C1 | % | -8.54 |
| COCC(=O)N1CCCC1c1cc(N2CCN(C(C)=O)CC2)cc(C)n1 (stereo not drawn) | % | 22.7 |
| COCCN1CCN(c2cc(OC)ncn2)Cc2ccc(C)nc21 | % | -10.4 |
| O=C(c1cccnc1N1CCOCC1)N1CCCC1Cn1cccn1 (stereo not drawn) | % | -8.41 |
| Cc1cnn(CCCNC(=O)C2CCCCN2Cc2ccncc2)c1 (stereo not drawn) | % | -4.19 |
| FC(F)(F)c1csc(N2CCN(Cc3ccccn3)CC2)n1 | % | -6.63 |
| CCN(C)Cc1n[nH]c(=O)n1-c1ccc(C)c(C)c1 | % | -11.7 |
| Nc1no[n+]([O-])c1C(=O)NCc1cccnc1 | % | -0.714 |
| Cc1ncc(C(=O)N2CCCC(Cc3nccs3)C2)cn1 (stereo not drawn) | % | -8.16 |
| O=C(OCC1CCCN1)c1cccc(NC(=O)c2ccco2)c1 (stereo not drawn) | % | -14.8 |
| CCO[C@@H]1CCN(C(=O)N(C)C)[C@@H]1Cc1cnn(C)c1 | % | -10.7 |
| CCN(CCCNCc1c(C)nn(C)c1N(C)C)S(C)(=O)=O | % | 4.83 |
| COc1cc(N2C[C@@H]3COC[C@@H](Cc4nc(C)no4)[C@@H]3C2)ncn1 | % | -7.51 |
| COCC1CC2(CCN(c3cccc(C)n3)CC2)CN1c1ncccn1 (stereo not drawn) | % | -10.3 |
| CN(CC1Cc2ccccc2CN1C)C(=O)CSc1ccccn1 (stereo not drawn) | % | -15.7 |
| CN(C)CCCNCC1CCOC(C)(C)C1 (stereo not drawn) | % | -3.4 |
| O=C(c1cccnc1N1CCCC1)N1CCOC(c2ccccc2)C1 (stereo not drawn) | % | -2.27 |
| COCc1nnc2n1CCN(Cc1ccoc1)C2 | % | -3.74 |
| CC(CS(C)(=O)=O)N(C)C(=O)NCCCc1ccc(Cl)cc1 (stereo not drawn) | % | -3.65 |
| CCc1ccc(S(=O)(=O)Nc2ccc(F)cc2C(=O)O)s1 | % | 5.89 |
| COc1cccc2c1OCC(CNC(=O)CN(C)C1CCCC1)C2 (stereo not drawn) | % | 6.99 |
| O=C(c1n[nH]c2c1CCN(Cc1nccs1)C2)N1CCCC1 | % | -7.39 |
| O=C1NC2(CCN(c3ncccn3)CC2)CC1c1cccnc1 (stereo not drawn) | % | -7.58 |
| CN(C)C(=O)CN1CCC(c2cncc(-c3cccc(Cl)c3)n2)CC1 | % | -7.08 |
| O=C(O)c1ccc(F)c(S(=O)(=O)Nc2c(F)cccc2-n2cccn2)c1 | % | -5.11 |
| c1cnc2[nH]c(C3CCNCC3)c(CN3CCOCC3)c2c1 | % | -1.47 |

---

- TEST: Human HepG2 cell viability assay in 384 well format
- Format: toxicity, cell-based
- Parameters: dose 125 nL, time 70.5 hour; concentration not given beside the values
- REPORTED_CONDITIONS: HepG2 cells, read-out: Inhibition
ASSAY_READOUT: cytotoxicity at 70.5 h (%)

| MOLECULE | MEASURED_VALUE |
| --- | --- |
| Fc1ccccc1C1NCCc2cc3c(cc21)OCCO3 (centres undefined) | 0.151 |
| Cc1ccc(C(=O)N2C[C@@H]3COC[C@]3(COc3cccnc3)C2)cn1 | 12.6 |
| CC(C)C(NC(=O)NCCNc1ncccn1)c1cccs1 (centres undefined) | -6.23 |
| CC(C)NS(=O)(=O)c1cc(C(=O)O)cc(-c2ccccc2CN(C)C)c1 | -1.54 |
| CN(CC(=O)N1CCCC1)C(=O)Cc1csc(-c2ncccn2)n1 | -1.25 |
| CC(C)N(C)C(=O)c1ccc(Cl)c(NC(=O)C2CCC2)c1 | 19.4 |
| Cn1cc(Br)c(=O)c(NS(=O)(=O)c2ccc(Cl)cc2)c1 | -18.4 |
| COc1ncc(NCc2ccsc2)cc1C(N)=O | 3.63 |
| Cc1ccccc1C1CCCN1Cc1ccc(S(=O)(=O)N(C)C)o1 (centres undefined) | -2.87 |
| O=C(c1ccc2cccnc2n1)N(Cc1ccsc1)CC1CCCO1 (centres undefined) | -12.4 |
| COC(=O)CNC(=O)C12CCC(=O)N1c1cc(Cl)ccc1S2 (centres undefined) | -1.84 |
| O=C(c1cc[nH]n1)N1CCc2onc(COc3cccnc3)c2C1 | -6.72 |
| CSCCNC(=O)c1coc(COc2ccc(F)cc2)n1 | 7.74 |
| O=C(c1ccccc1)N1CCN(C2CCc3ccc(F)cc32)CC1 (centres undefined) | -9.61 |
| CCCc1cc(C(=O)N2CCOC(c3nc(-c4cccs4)no3)C2)no1 (centres undefined) | 1.76 |
| O=C(CN1CCCNC1=O)Nc1ccccc1SC(F)(F)F | 21.5 |
| COc1ccc(NC2CCCN(Cc3cnc(N(C)C)s3)C2)cc1 (centres undefined) | -6.11 |
| COCCCOc1ccc(C(=O)N(C)Cc2cccc(O)c2)cn1 | -8.37 |
| CN(C)[C@H]1CCN(c2ccnc(C(=O)NCc3ccco3)c2)C1 | -5.04 |
| Cn1cc(C(=O)Nc2cccc(CCN3CCCC3)c2)ccc1=O | -5.46 |
| CCS(=O)(=O)N1CCC2(CC1)COC(COc1cccnc1)C2 (centres undefined) | -10.2 |
| CC(C1CC1)N(C)C(=O)CCn1cccn1 (centres undefined) | 8.62 |
| CN(C)[C@@H]1CCN(C(=O)CC2CC2)[C@H]1Cc1cnn(C)c1 | -7.51 |
| CC(C)c1nc(CN(C)C2CCN(CC(F)(F)F)C2)no1 (centres undefined) | 1.98 |
